Give measured relative viability for each item. Keep answers brief.
- System: PC-14
- assay comment: relative viability (nuclei count vs DMSO), 5 days (fraction); higher = more cells survive
- reported conditions: first compound 2 µM
Give bare numbers.

// worked examples, relative viability included
Param readout= relative viability; system= PC-14; entry= Cc1csc(=NC2CCCCC2)n1/N=C/c1ccc(O)c(O)c1O [MIM1] + CC1(C)CCC(c2ccc(Cl)cc2)=C(CN2CCN(c3ccc(C(=O)NS(=O)(=O)c4ccc(N[C@H](CCN5CCOCC5)CSc5ccccc5)c(S(=O)(=O)C(F)(F)F)c4)cc3)CC2)C1 [Navitoclax] (partner 0.5 µM) ; returns value. 0.988

Moving on to CN1CCN(CCOc2cc(OC3CCOCC3)c3c(Nc4c(Cl)ccc5c4OCO5)ncnc3c2)CC1 [Saracatinib] + CC(C)C[C@H](NC(=O)[C@H](Cc1ccccc1)NC(=O)c1cnccn1)B(O)O [Bortezomib] (partner 0.002 µM) 0.169

Moving on to CN1CCN(CCOc2cc(OC3CCOCC3)c3c(Nc4c(Cl)ccc5c4OCO5)ncnc3c2)CC1 [Saracatinib] + CS(=O)(=O)CCNCc1ccc(-c2ccc3ncnc(Nc4ccc(OCc5cccc(F)c5)c(Cl)c4)c3c2)o1 [Lapatinib] (partner 2 µM) 0.185

Please turn your attention to the following entry.
Param readout= relative viability; system= PC-14; entry= CN1CCN(CCOc2cc(OC3CCOCC3)c3c(Nc4c(Cl)ccc5c4OCO5)ncnc3c2)CC1 [Saracatinib] + Cc1nc(Nc2ncc(C(=O)Nc3c(C)cccc3Cl)s2)cc(N2CCN(CCO)CC2)n1 [Dasatinib] (partner 0.075 µM) ; returns value. 0.0398
